- System: Mycobacterium tuberculosis Erdman (autoluminescent)
- Experimental protocol: AUC25, normalised area under dose response up to IC25 (fraction (0-1)); higher = more potent at low dose
- Condition notes: in vitro model: acidic pH 5.7; time point: terminal (~4-5 doublings, model-specific)
Property measured: AUC25

1. CC[C@@H](CO)NCCN[C@@H](CC)CO [ethambutol] + O=[N+]([O-])c1cn2c(n1)OC[C@@H](OCc1ccc(OC(F)(F)F)cc1)C2 [pretomanid]	0.0826
2. CC[C@@H](CO)NCCN[C@@H](CC)CO [ethambutol] + COc1c(N2C[C@@H]3CCCN[C@@H]3C2)c(F)cc2c(=O)c(C(=O)O)cn(C3CC3)c12 [moxifloxacin]	0.0741
3. CC(C)/N=c1\cc2n(-c3ccc(Cl)cc3)c3ccccc3nc-2cc1Nc1ccc(Cl)cc1 [clofazimine] + CO[C@H]1/C=C/O[C@@]2(C)Oc3c(C)c(O)c4c(O)c(c(/C=N/N5CCN(C6CCCC6)CC5)c(O)c4c3C2=O)NC(=O)/C(C)=C\C=C\[C@H](C)[C@H](O)[C@@H](C)[C@@H](O)[C@@H](C)[C@H](OC(C)=O)[C@@H]1C [rifapentine]	0.0911
4. COc1c(N2C[C@@H]3CCCN[C@@H]3C2)c(F)cc2c(=O)c(C(=O)O)cn(C3CC3)c12 [moxifloxacin] + NC(=O)c1cnccn1 [pyrazinamide]	0.0766
5. CC(C)/N=c1\cc2n(-c3ccc(Cl)cc3)c3ccccc3nc-2cc1Nc1ccc(Cl)cc1 [clofazimine] + CC(=O)NC[C@H]1CN(c2ccc(N3CCOCC3)c(F)c2)C(=O)O1 [linezolid]	0.111

----------
The compounds listed here are annotated with their total FIC50.
- Tested on: Mycobacterium tuberculosis Erdman (autoluminescent)
- Experimental protocol: total FIC50 (Loewe) at 50% inhibition, three-drug combination (log2); higher = more antagonistic
- Condition notes: in vitro model: cholesterol 0.05 mM; time point: terminal (~4-5 doublings, model-specific)
Property measured: total FIC50

1. CC[C@@H](CO)NCCN[C@@H](CC)CO [ethambutol] + NC(=O)c1cnccn1 [pyrazinamide] + CO[C@H]1/C=C/O[C@@]2(C)Oc3c(C)c(O)c4c(O)c(c(/C=N/N5CCN(C)CC5)c(O)c4c3C2=O)NC(=O)/C(C)=C\C=C\[C@H](C)[C@H](O)[C@@H](C)[C@@H](O)[C@@H](C)[C@H](OC(C)=O)[C@@H]1C [rifampicin]	1.25
2. CC(C)/N=c1\cc2n(-c3ccc(Cl)cc3)c3ccccc3nc-2cc1Nc1ccc(Cl)cc1 [clofazimine] + COc1c(N2C[C@@H]3CCCN[C@@H]3C2)c(F)cc2c(=O)c(C(=O)O)cn(C3CC3)c12 [moxifloxacin] + NC(=O)c1cnccn1 [pyrazinamide]	0.91

----------
total FIC50: recorded values
- Tested on: Mycobacterium tuberculosis Erdman (autoluminescent)
- Experimental protocol: total FIC50 (Loewe) at 50% inhibition, three-drug combination (log2); higher = more antagonistic
- Condition notes: in vitro model: butyrate; time point: constant (~7 days, model-specific)
Property measured: total FIC50

1) CC[C@@H](CO)NCCN[C@@H](CC)CO [ethambutol] + CC(=O)NC[C@H]1CN(c2ccc(N3CCOCC3)c(F)c2)C(=O)O1 [linezolid] + CO[C@H]1/C=C/O[C@@]2(C)Oc3c(C)c(O)c4c(O)c(c(/C=N/N5CCN(C)CC5)c(O)c4c3C2=O)NC(=O)/C(C)=C\C=C\[C@H](C)[C@H](O)[C@@H](C)[C@@H](O)[C@@H](C)[C@H](OC(C)=O)[C@@H]1C [rifampicin]	0.215
2) NNC(=O)c1ccncc1 [isoniazid] + COc1c(N2C[C@@H]3CCCN[C@@H]3C2)c(F)cc2c(=O)c(C(=O)O)cn(C3CC3)c12 [moxifloxacin] + CO[C@H]1/C=C/O[C@@]2(C)Oc3c(C)c(O)c4c(O)c(c(/C=N/N5CCN(C)CC5)c(O)c4c3C2=O)NC(=O)/C(C)=C\C=C\[C@H](C)[C@H](O)[C@@H](C)[C@@H](O)[C@@H](C)[C@H](OC(C)=O)[C@@H]1C [rifampicin]	0.315
